B1: Hairpin Ribozyme (parent)
chain: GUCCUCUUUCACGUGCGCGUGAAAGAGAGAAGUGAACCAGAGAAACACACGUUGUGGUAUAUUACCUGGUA

- Variants of: B1
- measurement-notes: self-cleavage, relative activity (ratio to wild type); higher = more cleavage; co-transcriptional
// reported self-cleavage per item
Lab note: record just the number, no unit beside it.

* C12U U53C | 0.862
* C18A G19A | 0.886
* A31U G57U | 0.216

For the variant C4U G21U , report self-cleavage.
0.222

Fill in self-cleavage for record G15A U33A
0.0921

Annotate the variant A43C U67A with its measured self-cleavage.
0.0731

Identify self-cleavage associated with the variant A11G A43U
0.199

Tell us which self-cleavage value is on record for G34U C48U
0.695

Quick one: give measured self-cleavage for C18G A31G
0.549

In one line, give reported self-cleavage of the entry G17A A59C .
0.196

Supply self-cleavage value. Item: A36C A59U
0.157

Supply recorded self-cleavage for A30G A36U here.
0.152

Give self-cleavage for A39C A43C
0.14

Identify the reported self-cleavage for the following entry. A35C C66U
0.558

Output self-cleavage of A30G C38U
0.21

Answer with the recorded self-cleavage of C38U U70G only.
0.39
